Organism: Rattus norvegicus
Assay: DrugMatrix - Regimen: Daily Repeat
Type: toxicity, organism-based, Sprague-Dawley
Design: regimen Daily Repeat, gender Male, age 6-8 weeks
Settings: in vivo, po, 2 mg/kg, 72 h, tissue Blood, route oral GAVAGE, dose level High, time 3 day, vehicle 100 % SALINE
Parameter: ABSOLUTE LYMPHOCYTE (cells/µL)
Numeric only. Scale: cells/µL

Query string: Using the record for COc1cccc2c1C(=O)c1c(O)c3c(c(O)c1C2=O)C[C@@](O)(C(C)=O)C[C@@H]3O[C@H]1C[C@H](N)[C@H](O)[C@H](C)O1 , state its measured ABSOLUTE LYMPHOCYTE.
Result string: 7080

----------
Species on record: Rattus norvegicus
Experiment: DrugMatrix - Regimen: Daily Repeat
Assay type: toxicity, organism-based, Sprague-Dawley
Parameters: regimen Daily Repeat, gender Male, age 6-8 weeks
Settings: in vivo, po, 0 mg/kg, 72 h, tissue Plasma, route oral GAVAGE, dose level Control, time 3 day, […]
Parameter: TOTAL PROTEIN (G/DL)
Write down the numeric answer in G/DL and omit the unit.

Query string: Return the recorded TOTAL PROTEIN value; entry: c1ccoc1 [FURAN]
Result string: 6.13

Query string: Provide measured TOTAL PROTEIN value, entry: CCCCC(=O)N(Cc1ccc(-c2ccccc2-c2nnn[nH]2)cc1)[C@H](C(=O)O)C(C)C
Result string: 5.43

Query string: Annotate the compound O=c1c(-c2ccc(O)cc2)coc2cc(O)cc(O)c12 [GENISTEIN] with its measured TOTAL PROTEIN.
Result string: 5.63

Query string: Quick one: give measured TOTAL PROTEIN for ClC(Cl)(Cl)Cl [CARBON TETRACHLORIDE]
Result string: 5.95

----------
Species: Rattus norvegicus
Assay: DrugMatrix - Regimen: Daily Repeat
Format: toxicity, organism-based, Sprague-Dawley
Parameters: regimen Daily Repeat, gender Male, age 6-8 weeks
Conditions: in vivo, po, 0 mg/kg, 120 h, tissue Blood, route oral GAVAGE, dose level Control, time 5 day, vehicle 100 % WATER
For each record, write down the corresponding ERYTHROCYTE COUNT.
Numbers only here, please. The scale is x10E6/uL.

Query string: Using known records, supply ERYTHROCYTE COUNT for CCN(CC)CCOC(=O)C1(C2CCCCC2)CCCCC1
Result string: 6.02

Query string: Identify measured ERYTHROCYTE COUNT associated with CN(C)C(=O)Oc1cccc([N+](C)(C)C)c1.[Br-] [NEOSTIGMINE BROMIDE]
Result string: 5.32

Query string: Hello, please tell me recorded ERYTHROCYTE COUNT for this one: NC12CC3CC(CC(C3)C1)C2
Result string: 5.84

Query string: Specify reported ERYTHROCYTE COUNT for the compound shown: CN(C)CCC=C1c2ccccc2CCc2ccccc21
Result string: 5.84

Query string: Name the recorded ERYTHROCYTE COUNT of the item NC(=O)c1cccnc1 [NIACINAMIDE] in your answer.
Result string: 5.76

Query string: Please list ERYTHROCYTE COUNT recorded for the compound CNC1=Nc2ccc(Cl)cc2C(c2ccccc2)=[N+]([O-])C1 [CHLORDIAZEPOXIDE]
Result string: 5.83

----------
Species on record: Rattus norvegicus
Experiment: DrugMatrix - Regimen: Daily Repeat
Assay type: toxicity, organism-based, Sprague-Dawley
Design: regimen Daily Repeat, gender Male, age 6-8 weeks
Details: in vivo, iv, 0 mg/kg, 120 h, tissue Blood, dose level Control, time 5 day, vehicle 100 % SALINE
Assignment: determine reported NUCLEATED RED BLOOD CELLS for the given compounds.

Query string: For the compound COc1cccc2c1C(=O)c1c(O)c3c(c(O)c1C2=O)C[C@@](O)(C(C)=O)C[C@@H]3O[C@H]1C[C@H](N)[C@H](O)[C@H](C)O1 , give its measured NUCLEATED RED BLOOD CELLS value.
Result string: 0 /100WBC

Query string: Please list NUCLEATED RED BLOOD CELLS recorded for the compound N=C(N)c1ccc(OCCCCCOc2ccc(C(=N)N)cc2)cc1
Result string: 0 /100WBC

Query string: // fetch NUCLEATED RED BLOOD CELLS given entry C[N+](C)(C)CCOC(=O)CCC(=O)OCC[N+](C)(C)C.[Cl-].[Cl-] [SUCCINYLCHOLINE CHLORIDE]
Result string: 0 /100WBC

Query string: Answer with the recorded NUCLEATED RED BLOOD CELLS for the compound listed here: O=c1[nH]c(=O)n([C@H]2C[C@H](O)[C@@H](CO)O2)cc1F
Result string: 0.17 /100WBC

Query string: Return NUCLEATED RED BLOOD CELLS (reported value) for this compound: O=C(O)P(=O)(O)O
Result string: 0.17 /100WBC
